Every entry's value here was drawn from ChEMBL document CHEMBL1275475.

# Measured On: MecA (Staphylococcus aureus, UniProt Q7DHH4)
# Sequence (Q7DHH4 whole entry): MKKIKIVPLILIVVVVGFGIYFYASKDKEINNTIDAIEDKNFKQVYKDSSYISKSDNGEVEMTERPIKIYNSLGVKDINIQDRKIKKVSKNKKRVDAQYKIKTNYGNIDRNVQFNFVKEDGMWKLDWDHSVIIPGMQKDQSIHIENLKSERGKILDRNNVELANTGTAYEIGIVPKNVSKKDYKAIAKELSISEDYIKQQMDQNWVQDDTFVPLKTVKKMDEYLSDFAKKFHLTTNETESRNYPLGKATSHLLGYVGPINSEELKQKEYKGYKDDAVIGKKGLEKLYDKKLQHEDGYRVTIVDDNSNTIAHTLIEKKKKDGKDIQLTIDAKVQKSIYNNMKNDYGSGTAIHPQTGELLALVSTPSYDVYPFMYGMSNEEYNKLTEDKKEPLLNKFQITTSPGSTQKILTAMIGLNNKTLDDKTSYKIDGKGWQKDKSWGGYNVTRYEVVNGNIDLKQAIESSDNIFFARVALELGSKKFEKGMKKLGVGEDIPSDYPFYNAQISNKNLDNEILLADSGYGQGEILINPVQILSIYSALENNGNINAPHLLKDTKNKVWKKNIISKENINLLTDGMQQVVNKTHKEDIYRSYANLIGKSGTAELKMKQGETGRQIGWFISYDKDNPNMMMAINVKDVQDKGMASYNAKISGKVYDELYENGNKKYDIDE
# Assay Text: Binding affinity to PBP2a in methicillin-resistant Staphylococcus aureus 123-1 by [14C]benzylpenicillin labelled competitive assay
Assignment: determine reported IC50 for the given compounds.
Write the value in µM as a bare number.

Form field IC50, entry C[C@@H](O)[C@H]1C(=O)N2C(C(=O)O)=C(S[C@@H]3CN[C@H](C(=O)N(C)C)C3)[C@H](C)[C@H]12 : 339

Form field IC50, entry C[C@@H](O)[C@H]1C(=O)N2C(C(=O)O)=C(SCCNC=N)C[C@H]12 [IMIPENEM ANHYDROUS] : 568

Form field IC50, entry C[C@@H](O)[C@H]1C(=O)N2C(C(=O)O)=C(S[C@H]3C[C@@H](C(=O)N4CC[C@H](NC(=O)CNC(=N)N)C4)N(C)C3)[C@H](C)[C@H]12 : 9.86

###

# Test system: Pseudomonas aeruginosa
# Assay Text: Antibacterial activity against beta-lactamase-overproducing and OprD-deficient Pseudomonas aeruginosa N044 by broth microdilution method
# Format: functional
Please note: MIC exactly at 8 µg/mL is no (0). Only values below 8 µg/mL get yes (1).

Quick check: MIC of C[C@@H](O)[C@H]1C(=O)N2C(C(=O)O)=C(SCCNC=N)C[C@H]12 [IMIPENEM ANHYDROUS] under 8 µg/mL?
no (0)

Quick check: MIC of C[C@H]1COc2c(N3CCN(C)CC3)c(F)cc3c(=O)c(C(=O)O)cn1c23.C[C@H]1COc2c(N3CCN(C)CC3)c(F)cc3c(=O)c(C(=O)O)cn1c23.O under 8 µg/mL?
yes (1)

Quick check: MIC of C[C@@H](O)[C@H]1C(=O)N2C(C(=O)O)=C(S[C@@H]3CN[C@H](C(=O)N(C)C)C3)[C@H](C)[C@H]12 under 8 µg/mL?
no (0)

Quick check: MIC of CC(C)(O/N=C(\C(=O)N[C@@H]1C(=O)N2C(C(=O)[O-])=C(C[n+]3ccccc3)CS[C@H]12)c1csc(N)n1)C(=O)O under 8 µg/mL?
no (0)

###

# System: Pseudomonas aeruginosa
# Assay Text: Antibacterial activity against beta-lactamase and MexA-MexB-OprM-overproducing Pseudomonas aeruginosa N045 by broth microdilution method
# Assay type: functional
Assignment: determine reported MIC for the given compounds.
Write the value in µg/mL as a bare number.

Case CC(C)(O/N=C(\C(=O)N[C@@H]1C(=O)N2C(C(=O)[O-])=C(C[n+]3ccccc3)CS[C@H]12)c1csc(N)n1)C(=O)O , Pseudomonas aeruginosa, MIC recorded as 128

Case NCC[C@H](O)C(=O)N[C@@H]1C[C@H](N)[C@@H](O[C@H]2O[C@H](CN)[C@@H](O)[C@H](O)[C@H]2O)[C@H](O)[C@H]1O[C@H]1O[C@H](CO)[C@@H](O)[C@H](N)[C@H]1O , Pseudomonas aeruginosa, MIC recorded as 8

Case C[C@@H](O)[C@H]1C(=O)N2C(C(=O)O)=C(SCCNC=N)C[C@H]12 [IMIPENEM ANHYDROUS] , Pseudomonas aeruginosa, MIC recorded as 1

Case C[C@@H](O)[C@H]1C(=O)N2C(C(=O)O)=C(S[C@H]3C[C@@H](C(=O)N4CC[C@H](NC(=O)CNC(=N)N)C4)N(C)C3)[C@H](C)[C@H]12 , Pseudomonas aeruginosa, MIC recorded as 1

Case C[C@@H](O)[C@H]1C(=O)N2C(C(=O)O)=C(S[C@@H]3CN[C@H](C(=O)N(C)C)C3)[C@H](C)[C@H]12 , Pseudomonas aeruginosa, MIC recorded as 2
